Below is a list of entries, each paired with its recorded pEC50 value.
test system: SREBP-2; assay: SREBP-2 expression in cultured primary human hepatocytes; format: cell-based; details: Homo sapiens, Hepatocyte, procedure of Example 6, read-out: SREBP-2 mRNA inhibition (EC50)
Notebook: values listed as pEC50 are -log10 of the concentration (mol/L).

Examples with their reported pEC50 follow.
NC(=O)N1CCN(c2cc(-c3ccc(Cl)cc3)cc(-c3ccc(S(N)(=O)=O)cc3)c2N)CC1	4.30
NC(=O)c1cc(-c2ccc(Cl)cn2)cc(-c2ccc(S(N)(=O)=O)cc2)c1N	4.95
NC(=O)c1cc(-c2ccc(Cl)cc2)cc(-c2ccc(S(N)(=O)=O)cc2)c1NCc1cccc(Cl)c1	5.07
NC(=O)c1cc(/C=C/c2ccc(Cl)cc2)cc(-c2ccc(S(N)(=O)=O)cc2)c1N	5.13
NC(=O)c1cc(-c2ccc(Cl)cc2)cc(-c2ccc(S(N)(=O)=O)cc2)c1NC(=O)c1cccnc1	4.73

Given "CCCC(=O)OCC#Cc1cc(C(N)=O)c(N)c(-c2ccc(S(N)(=O)=O)cc2)c1" , respond with its pEC50.
5.59

Give the reported pEC50 for this molecule. "NC(=O)c1cc(-c2ccc(Cl)cc2)cc(-c2ccc(S(N)(=O)=O)cc2)c1NC(=O)CCO"
5.68

// fetch pEC50 given entry "NC(=O)c1cc(C#CCOC(=O)c2ccc[nH]2)cc(-c2ccc(S(N)(=O)=O)cc2)c1N"
4.89

Supply reported pEC50 belonging to this molecule: "NC(=O)c1cc(C#Cc2ccccc2)cc(-c2ccc(S(N)(=O)=O)cc2)c1N"
6.05

----------
Entries and their EC50
tested on: SREBP-2; assay: SREBP-2 expression in cultured primary human hepatocytes; type: cell-based; details: Homo sapiens, Hepatocyte, procedure of Example 6, read-out: SREBP-2 mRNA inhibition (EC50)
Reply with just the number (in µM).

NC(=O)c1cc(-c2ccc(Cl)cc2)cc(OCc2ccc(S(N)(=O)=O)cc2)c1N	4.31
NCCC(=O)Nc1c(C(N)=O)cc(-c2ccc(Br)cc2)cc1-c1ccc(S(N)(=O)=O)cc1	5.1

Tell me its EC50 on SREBP-2: "NC(=O)c1cc(-c2ccc(Cl)cc2)cc(-c2ccc(S(N)(=O)=O)cc2)c1NCCc1ccccc1"
6.79

Fill in EC50 for "NC(=O)Nc1ccc(-c2cc(-c3ccc(Cl)cc3)cc(C(N)=O)c2NC(=O)CCO)cc1" tested with SREBP-2.
4.45

Name the value of EC50 reported for "NC(=O)c1cc(-c2ccc(Cl)cc2)cc(-c2ccc(NC(=O)Nc3cccnc3)cc2)c1N" when tested on SREBP-2.
3.98
